Assignment: determine reported GI50 for the given molecules.
Test system: SF-295
Assay Text: NCI tumour cell line growth inhibition, 48 h
The source made the active and inactive calls. Cut-off read from the data, not from the text of the source: active = GI50 up to about 1.1 µM and inactive = higher. Numbered stars: 1 amine (or outer) side, 2 acyl side, 3 side chain; on linkers, the order of the positions; unused ones are H or OH. Bridge positions count the residues as written; N and C are the ends. Square brackets hold non-standard residues; d marks the D form. Peptide text beside a SMILES is read from it. I, II: the chains in the order shown. Actinocin(9to1) = Cc1c2oc3c(C)ccc(C(=O)[*:1])c3nc-2c(C(=O)[*:2])c(N)c1=O; X48 = O=C1CC(C(=O)[*:2])N([*:1])C1; NMeV = CN[CH](C(=O)O)C(C)C; Sar = CNCC(=O)O

COC(=O)C1=CCS(=O)(=O)C1
> 100 µM (inactive)
C#CCNC(=O)CCC(N)C(=O)O (centres undefined)
> 100 µM (inactive)
C/C(=N\Nc1nc2ccccc2s1)c1cnccn1
2.76 µM (inactive)
CC(=S)NC=C(C(N)=O)C(N)=O
> 100 µM (inactive)
Cc1cc(C)[n+]2c(c1)C=CC2.[O-][Cl+3]([O-])([O-])[O-]
25.1 µM (inactive)

State the recorded GI50 for every item in the following list.
1. Cc1c2oc3c(C)ccc(C(=O)NC4C(=O)NC(C(C)C)C(=O)N5CC(=O)CC5C(=O)N(C)CC(=O)N(C)C(C(C)C)C(=O)OC4C)c3nc-2c(C(=O)NC2C(=O)NC(C(C)C)C(=O)N3CC(=O)CC3C(=O)N(C)CC(=O)N(C)C(C(C)C)C(=O)OC2C)c(N)c1=O (centres undefined) (I: TV[X48][Sar][NMeV] / II: TV[X48][Sar][NMeV]; ester I:1-I:C, II:1-II:C; linker I:N-II:N via Actinocin(9to1); configuration not given here)
2. COC1=CC(=O)C2C(C1=O)C(c1ccccc1)[C@H]2C (some centres undefined)
3. CCOC(=O)C1=CN=C2C(=O)N(c3ccccc3)N(C)C2(C)C1=N (centres undefined)
4. C=CC(CBr)CCC(Br)C(C)(C)Br (centres undefined)
5. COc1ccc(C2=NN(C(=O)c3ccc(Cl)cc3)C(O)(c3cc(F)c(Cl)cc3Cl)C2)cc1 (centres undefined)
6. CC(=O)/N=C1\NC(=O)/C(=C/c2ccccc2Cl)N1C
7. O=C(OCCNC(=O)N1CC1)OCCNC(=O)N1CC1
8. COC(=O)[C@@]12CC3CN(Cc4c1[nH]c1ccccc41)C2CC3=O

stdout:
["> 1 µM (active)", "> 100 µM (inactive)", "> 100 µM (inactive)", "> 10 µM (inactive)", "> 100 µM (inactive)", "> 100 µM (inactive)", "> 10 µM (inactive)", "> 100 µM (inactive)"]

stdin: Give GI50; test system SF-295; molecule CC1CC(=O)Nc2nc3ccccc3n21 (centres undefined)
stdout: > 100 µM (inactive)
